system: MDA-MB-468 breast; test: NCI tumour cell line growth inhibition, 48 h; in the data active means GI50 below about 0.43 µM; inactive means the rest
The categories you may choose from are true (1) = active, false (0) = inactive

Some solved cases for reference:
Molecule: C#C[C@]1(O)CC[C@H]2[C@@H]3CC=C4c5sc(Nc6cc(C)cc(C)c6)nc5CC[C@]4(C)[C@H]3CC[C@@]21C
Assigned label: false (0)

Molecule: CN1CCN(c2ccc3nc(-c4[nH]ncc4Nc4ncnc5[nH]ccc45)[nH]c3c2)CC1
Assigned label: true (1)

Molecule: CC(C)Cn1cnc2c(N)nc3ccccc3c21
Assigned label: false (0)

What did this assay record as the result for CCCCCCCCCCCC(c1ccccc1)[N+](C)(C)C (centres undefined) ?
true (1)

Also check CN(C)CCN1C(=O)c2cccc3cc(N)cc(c23)C1=O
false (0)

Also check C=C(C)[C@@H]1CC[C@]2(C(=O)OC)CC[C@]3(C)[C@H](CC[C@@H]4[C@@](C)(CCc5nn[nH]n5)[C@H](C(=C)C)CC[C@]43C)[C@@H]12
false (0)

Also check Nc1nc(N)c2cc(S(=O)(=O)c3cccc(C(F)(F)F)c3)ccc2n1
false (0)

Also check Cc1ccc(/C=C/C(=O)c2ccc(F)cc2)s1
false (0)

Also check C=CCn1c(SCC(=O)Nc2ccc(C(=O)/C=C/c3cc(OC)c(OC)c(OC)c3)cc2)nnc1-c1cc(OC)c(OC)c(OC)c1
false (0)
